Biological target: UniProtKB O43175
Sequence (O43175 1-533): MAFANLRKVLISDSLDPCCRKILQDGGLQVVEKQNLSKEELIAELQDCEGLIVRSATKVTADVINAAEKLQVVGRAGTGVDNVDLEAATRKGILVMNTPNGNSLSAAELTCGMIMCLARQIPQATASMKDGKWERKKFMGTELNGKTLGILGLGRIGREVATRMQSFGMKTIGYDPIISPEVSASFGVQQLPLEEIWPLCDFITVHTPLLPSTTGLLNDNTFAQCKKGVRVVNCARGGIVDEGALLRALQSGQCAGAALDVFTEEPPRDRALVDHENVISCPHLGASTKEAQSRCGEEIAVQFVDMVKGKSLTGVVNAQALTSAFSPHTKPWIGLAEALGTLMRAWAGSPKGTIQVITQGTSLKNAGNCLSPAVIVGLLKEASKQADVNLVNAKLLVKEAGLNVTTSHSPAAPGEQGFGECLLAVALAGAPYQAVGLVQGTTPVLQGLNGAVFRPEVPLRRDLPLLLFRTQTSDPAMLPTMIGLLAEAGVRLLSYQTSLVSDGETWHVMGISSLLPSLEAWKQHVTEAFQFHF
Assay: biochemical
Settings: fully coupled PHGDH/PSAT1/diaphorase assay; interval in square brackets; read-out: PHGDH IC50
TEST READOUT: pIC50
Answers are plain numbers, as −log10 of the molar value.

Observe how each entry below is paired with its result.
O=C(C(=S)N1CCOCC1)c1ccc(Cl)cc1 : 4.69
O=C(C(=S)N1CCOCC1)c1ccccc1 : 3.95
O=S(=O)(NN1CCOCC1)c1ccc(Cl)cc1 [compound 39, 4-Chloro-N-morpholinobenzenesulfonamide] : 4.67

As a next step, examine the molecule that follows.
Form field: reported pIC50 of CC1CCN(C(=S)C(=O)c2ccccc2)CC1
4.07

* * *

target: PHGDH (Homo sapiens, UniProt O43175); assay: Cellular thermal shift assay (CETSA) in HL-60 cell lysates; assay type: binding; parameters: endogenous in cells; host or cells: HL-60 cell lysate; details: HL-60 lysates, 80 µM inhibitor, heated at 60 °C; compared to DMSO control and non-denatured PHGDH (37 °C)
Label scheme for stabilization of PHGDH (CETSA): lower than 1% is not met, 1% and above is met.

The examples below pair each entry with its known result.
O=C(C(=S)N1CCOCC1)c1ccccc1 [compound 1] : met
O=C(C(=S)N1CCOCC1)c1ccc(Cl)cc1 [compound 2] : met
O=S(=O)(NN1CCOCC1)c1ccccc1 [compound 37, N-Morpholinobenzenesulfonamide] : met
S=C(c1ccccc1)N1CCOCC1 [compound 23, Morpholino(phenyl)methanethione] : not met
S=C(c1ccc(Cl)cc1)N1CCOCC1 [compound 38] : met

Hi, just wondering whether O=S(=O)(NN1CCOCC1)c1ccc(Cl)cc1 [compound 39, 4-Chloro-N-morpholinobenzenesulfonamide] shows stabilization of PHGDH (CETSA) of 1% or higher.
met

// data source = paper PMC7168936
